# assay.text: yeast display, Sf9 membrane polyspecificity reagent, FACS + sequencing; frameworks hold sequencing errors
measure.name: polyreactivity (PSR sort gate)

Previously resolved entries follow.
INSERT INTO assay_data (biopolymer_sequence, measured_result) VALUES
  ('QVQLVESGGGLVQAGGSLRLSCAASGRILLYNAMGWYRQAPGKERELVAAISRSGGSTYYADSVKGRFTISRDNAKNTVYLQMNSLKPEDTAVDYCAAQHGYTRYYYWGQGTQVTVSS', 'high polyreactivity'),
  ('QVQLVESGGGLVQAGGSLRLSCAASGRTFANNAMGWYRQAPGKERELVAAISSSDDSTYYADSVKGRFTISRDNAKNTVYLQMNILKPEDTAVYYCAAPYPGHQSRFGYESWGQGTQVTVSS', 'low polyreactivity'),
  ('QVQLVESGGGLVQAGGSLRLRCAASGSIFHSYAMAWYSQAPGKEREMVASITASVDSTYYADSVKGRFTISRDNAKNTVYLQMNSLIPEDTAVYYCAAEAQFNFYSYDFWGQGTQVTVSS', 'low polyreactivity'),
  ('QVQLVESGGGLVQAGGSLRLSCAASGIIFGDKAMGWYRQAPGKERELVAAITIGGTSTYYADSVKGRFTISRDNAKNTVYLQMNRLKPEDTAVYYCAKTILYDCDYWGQGTQVTVSS', 'low polyreactivity'),
  ('QVQLVESGGGLVQAGGSLRLSCAASGSTFVYNAMGWDRQAPGKERELVAAITVSDGSTYYADSVKGRFTISRDNAKNTVYLHMKSLKPEDTAVFYCNADFPRKTRYEYWGQGTQVTVSS', 'low polyreactivity');

I would be grateful if you could share the reported polyreactivity (PSR sort gate) for QVQLVESGGGLVQAGGSLRLSCAASGSTCPYYAMGWYRQAPRKEMELVASIRKRGGGTSYADSVKGRFTISRDNAKNTVYLQMNSLKPEDTALYYCAVRVYQLRYTGYDYWGQCTQVTVSS .
high polyreactivity

Data provenance: the nanobody polyreactivity screen of Harvey et al. (2022)
